Please provide measured Kp for the entries that follow.
# EXPERIMENT_DESCRIPTION: Partitioning coefficient, ratio of drug uptake from rat brain to plasma at 10 mg/kg, po
# Type: ADME, organism-based
# Set-up: dose 10 mg/kg, route oral
# TEST_CONDITIONS: brain
Give bare numbers.

Worked cases, answers included:
Cn1cnc(S(=O)(=O)N2C[C@@H]3[C@H](C2)[C@@]3(CNC(=O)c2ccc(Cl)c(Cl)c2)CC2CC2)c1; 0.3
Cn1cnc(S(=O)(=O)N2C[C@@H]3[C@H](C2)[C@@]3(CNC(=O)c2cc(Cl)cc(Cl)c2)CC2CC2)c1; 0.3
Cn1cnc(S(=O)(=O)N2C[C@@H]3[C@H](C2)[C@@]3(CNC(=O)c2ccc(Cl)cc2Cl)c2ccccn2)c1; 1.1
Cn1cnc(S(=O)(=O)N2C[C@@H]3[C@H](C2)[C@@]3(CNC(=O)c2ccccc2C(F)(F)F)CC2CC2)c1; 0.83
Cn1cnc(S(=O)(=O)N2C[C@@H]3[C@H](C2)[C@@]3(CNC(=O)c2c(Cl)cccc2Cl)CC2CC2)c1; 0.5

Now, please, on to the next compound.
Fill in reported Kp for this entry: Cn1cnc(S(=O)(=O)N2C[C@@H]3[C@H](C2)[C@@]3(CNC(=O)c2ccc(Cl)cc2)CC2CC2)c1
0.3
